protocolDetails: Cytotoxicity against mouse J774 cells assessed as reduction of cell viability after 24 hrs by resazurin dye-based fluorometric analysis
For each record, write down the corresponding CC50 at 24 h.
Report the figure in µM without appending any unit label.

// query Which value of CC50 at 24 h has been reported for O=S(=O)(Nc1cccc2cnccc12)c1ccc(Cl)cc1 in the records?
// result 60.8

// query Which value of CC50 at 24 h has been reported for O=S(=O)(Nc1ccc2nccnc2c1)c1ccc(F)cc1 in the records?
// result 43.9

// query Which value of CC50 at 24 h has been reported for O=S(=O)(Nc1ccc2nccnc2c1)c1ccc(Cl)cc1 in the records?
// result 23.8

// query Which value of CC50 at 24 h has been reported for Cc1cc2cc(NS(=O)(=O)c3ccc(Cl)cc3)ccc2[nH]1 in the records?
// result 195

// query Which value of CC50 at 24 h has been reported for Cc1cc2cc(NS(=O)(=O)c3ccc(F)cc3)ccc2[nH]1 in the records?
// result 40.4
